We begin with a simple list: items and their reported MIC.
- System: Nocardia farcinica
- procedureText: Antimicrobial activity against Nocardia farcinica after 72 hrs by microdilution method
- Assay type: functional
Give just the number in µg/mL; leave the unit off.

Past entries and their recorded results:
q: Requested field: MIC. Item: C[C@@H](O)[C@H]1C(=O)N2C(C(=O)O)=C(SCCNC=N)C[C@H]12 [IMIPENEM ANHYDROUS]
a: 1

q: Would you mind doing CC(=O)NC[C@H]1CN(c2ccc(N3CCOCC3)c(F)c2)C(=O)O1 [LINEZOLID] as well?
a: 0.12

q: Would you mind doing CN(C)c1cc(NC(=O)CNC(C)(C)C)c(O)c2c1C[C@H]1C[C@H]3[C@H](N(C)C)C(O)=C(C(N)=O)C(=O)[C@@]3(O)C(O)=C1C2=O [TIGECYCLINE] as well?
a: 1

More entries:
q: Requested field: MIC. Item: C[C@@H](O)[C@H]1C(=O)N2C(C(=O)O)=C(S[C@@H]3CN[C@H](C(=O)Nc4cccc(C(=O)O)c4)C3)[C@H](C)[C@H]12 [ERTAPENEM]
a: 4

---

- Test system: Nocardia farcinica
- procedureText: Antimicrobial activity against Nocardia farcinica after 72 hrs by microdilution method
- Format: functional
We begin with a simple list: items and their reported MIC.
Give just the number in µg/mL; leave the unit off.

Past entries and their recorded results:
q: Requested read-out MIC, target or system Nocardia farcinica, entry CN(C)c1ccc(O)c2c1C[C@H]1C[C@H]3[C@H](N(C)C)C(O)=C(C(N)=O)C(=O)[C@@]3(O)C(O)=C1C2=O
a: 1

q: Would you mind doing C[C@@H](O)[C@H]1C(=O)N2C(C(=O)O)=C(S[C@@H]3CN[C@H](C(=O)N(C)C)C3)[C@H](C)[C@H]12 as well?
a: 2

--- query ---
q: Requested read-out MIC, target or system Nocardia farcinica, entry NCC[C@H](O)C(=O)N[C@@H]1C[C@H](N)[C@@H](O[C@H]2O[C@H](CN)[C@@H](O)[C@H](O)[C@H]2O)[C@H](O)[C@H]1O[C@H]1O[C@H](CO)[C@@H](O)[C@H](N)[C@H]1O
a: 1

---

We begin with a simple list: items and their reported MIC.
- Tested on: Nocardia abscessus
- procedureText: Antimicrobial activity against Nocardia abscessus after 72 hrs by microdilution method
- Assay type: functional
Give just the number in µg/mL; leave the unit off.

q: Requested field: MIC. Item: C[C@@H](O)[C@H]1C(=O)N2C(C(=O)O)=C(SCCNC=N)C[C@H]12 [IMIPENEM ANHYDROUS]
a: 0.5

More entries:
q: Requested field: MIC. Item: C[C@@H](O)[C@H]1C(=O)N2C(C(=O)O)=C(S[C@@H]3CN[C@H](C(=O)Nc4cccc(C(=O)O)c4)C3)[C@H](C)[C@H]12
a: 0.5

q: Would you mind doing C[C@@H](O)[C@H]1C(=O)N2C(C(=O)O)=C(S[C@@H]3CN[C@H](C(=O)N(C)C)C3)[C@H](C)[C@H]12 as well?
a: 0.25

q: Would you mind doing COc1c(N2C[C@@H]3CCCN[C@@H]3C2)c(F)cc2c(=O)c(C(=O)O)cn(C3CC3)c12 as well?
a: 1

---

- System: Nocardia otitidiscaviarum
- procedureText: Antimicrobial activity against Nocardia otitidiscaviarum after 72 hrs by microdilution method
- Assay type: functional
parameter: MIC (µg/mL)
Give just the number in µg/mL; leave the unit off.

q: Requested field: MIC. Item: C[C@@H](O)[C@H]1C(=O)N2C(C(=O)O)=C(S[C@@H]3CN[C@H](C(=O)Nc4cccc(C(=O)O)c4)C3)[C@H](C)[C@H]12
a: 1

q: Would you mind doing C[C@@H](O)[C@H]1C(=O)N2C(C(=O)O)=C(S[C@@H]3CN[C@H](C(=O)N(C)C)C3)[C@H](C)[C@H]12 as well?
a: 1

q: Would you mind doing NCC[C@H](O)C(=O)N[C@@H]1C[C@H](N)[C@@H](O[C@H]2O[C@H](CN)[C@@H](O)[C@H](O)[C@H]2O)[C@H](O)[C@H]1O[C@H]1O[C@H](CO)[C@@H](O)[C@H](N)[C@H]1O as well?
a: 1

q: Would you mind doing CN(C)c1ccc(O)c2c1C[C@H]1C[C@H]3[C@H](N(C)C)C(O)=C(C(N)=O)C(=O)[C@@]3(O)C(O)=C1C2=O as well?
a: 0.5

More entries:
q: Requested field: MIC. Item: C[C@@H](O)[C@H]1C(=O)N2C(C(=O)O)=C(SCCNC=N)C[C@H]12 [IMIPENEM ANHYDROUS]
a: 0.5
